Give IC50 for every item shown.
Biological target: FGFR2 (Homo sapiens, UniProt P21802)
Sequence (P21802 399-821 limits assumed): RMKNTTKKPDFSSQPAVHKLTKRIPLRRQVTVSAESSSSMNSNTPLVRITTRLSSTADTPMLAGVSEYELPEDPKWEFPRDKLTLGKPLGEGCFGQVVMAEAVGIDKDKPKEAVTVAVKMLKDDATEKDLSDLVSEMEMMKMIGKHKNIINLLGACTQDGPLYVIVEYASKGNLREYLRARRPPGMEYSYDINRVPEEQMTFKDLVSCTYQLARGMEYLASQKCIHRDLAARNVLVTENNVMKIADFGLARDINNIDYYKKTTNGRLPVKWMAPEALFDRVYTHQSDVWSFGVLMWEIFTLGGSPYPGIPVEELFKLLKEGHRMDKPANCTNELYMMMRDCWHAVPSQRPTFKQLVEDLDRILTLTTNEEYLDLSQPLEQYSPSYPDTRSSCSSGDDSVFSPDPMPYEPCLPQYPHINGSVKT
Test: FGFR wild type enzyme assay (HTRF KinEASE-TK), FGFR2
Conditions: Enz FGFR2 (nM), FGFR2 wild type enzyme assay
Give bare numbers, in nM.

Here are 3 compounds. What values of IC50 were reported for them?
1. N#Cc1ccccc1Sc1cc(-c2ccc(N3CCO[C@@H](CO)C3)nc2)cn2ncc(C#N)c12 [Example 648]
2. Cc1c(-c2cc(Sc3ccc(F)cc3C#N)c3c(C#N)cnn3c2)cnn1[C@H]1CC[C@H](N(C)CCO)CC1 [Example 391]
3. CC(=O)N[C@@H]1CC[C@@H](n2cc(-c3cc(Sc4ccccc4C#N)c4c(C#N)cnn4c3)cn2)C1 [Example 368]

Result:
1: 0.6; 2: 1; 3: 0.4

Here are 7 compounds. What values of IC50 were reported for them?
1. Cc1ccc(-c2cc(Sc3ccccc3C#N)c3c(C#N)cnn3c2)cn1 [Example 539]
2. Cc1nn([C@H]2CC[C@H](O)CC2)cc1-c1cc(Sc2ccccc2C#N)c2c(C#N)cnn2c1 [Example 441]
3. N#Cc1cnn2cc(-c3cn([C@H]4CCCNC4)nn3)cc(Sc3ncccc3F)c12 [Example 404]
4. Cc1c(-c2cc(Sc3ccc(F)cc3C#N)c3c(C#N)cnn3c2)cnn1[C@H]1CC[C@H](OP(=O)(O)O)CC1 [Example 543]
5. CC(=O)N1CCC(n2ncc(-c3cc(Sc4ccccc4C#N)c4c(C#N)cnn4c3)c2F)CC1 [Example 398]
6. CC(=O)N1CCN(c2ccc(-c3cc(Sc4ncccc4F)c4c(C#N)cnn4c3)cn2)CC1 [Example 555]
7. N#Cc1cnn2cc(-c3cnn(C(CO)CO)c3)cc(Sc3ncccc3F)c12 [Example 524]

Result:
1: 9; 2: 3; 3: 15; 4: 2; 5: 2; 6: 1; 7: 3

Here are 6 compounds. What values of IC50 were reported for them?
1. CC(C)(O)CCn1cc(-c2cc(Sc3ccccc3C#N)c3c(C#N)cnn3c2)cn1 [Example 653]
2. C[C@@H](O)C(=O)N1CCC[C@H](n2cc(-c3cc(Sc4ccccc4C#N)c4c(C#N)cnn4c3)cn2)C1 [Example 590]
3. CC(C)n1cc(-c2cc(Sc3ncccc3F)c3c(C#N)cnn3c2)cn1 [Example 449]
4. Cc1c(-c2cc(Sc3ccc(F)cc3C#N)c3c(C#N)cnn3c2)cnn1[C@@H]1CCC(C)(C)NC1 [Example 528]
5. Cc1cnc(Sc2cc(-c3cnn(C4CCN(C)CC4)c3C)cn3ncc(C#N)c23)c(F)c1 [Example 377]
6. N#Cc1ccccc1Sc1cc(-c2ccc(N3CCCC3)nc2)cn2ncc(C#N)c12 [Example 549]

Result:
[1, 0.5, 2, 2.5, 11, 1]

* * *

Biological target: FGFR2 N549H (Homo sapiens, UniProt P21802, N549H)
Sequence (P21802 399-821 N549H limits assumed): as the sequence (P21802 399-821 limits assumed) above, with N151H counted along it
Test: FGFR mutant enzyme assay (HTRF KinEASE-TK), FGFR2 N549H
Conditions: Table 4
readout type: IC50
A complete answer gives the number and then names the unit.

Below are worked cases with known answers.
molecule | IC50
N#Cc1cnn2cc(-c3cnn([C@H]4CCCNC4)c3)cc(Sc3ccccn3)c12 [Example 1] | 1.5 nM
Cc1c(-c2cc(Sc3cccc(F)c3C#N)c3c(C#N)cnn3c2)cnn1C1CCNCC1 [Example 130] | 3 nM
CN[C@H]1CC[C@@H](n2ncc(-c3cc(Sc4ccccc4C#N)c4c(C#N)cnn4c3)c2C)CC1 [Example 117] | 0.2 nM

Note: attention shifts to another entry.
Q: Given the molecule Cc1nc(Sc2cc(-c3cnn(C4CCN(C)CC4)c3C)cn3ncc(C#N)c23)ccc1F [Example 128] , what is its reported IC50?
Result: 4 nM

* * *

Give IC50 for every item shown.
Target: FGFR2 (Homo sapiens, UniProt P21802)
Experiment: FGFR wild type enzyme assay (HTRF KinEASE-TK), FGFR2
Settings: Enz FGFR2 (nM), FGFR2 wild type enzyme
One number for each entry, in nM.

compound | quantitative result
Cc1c(-c2cc(Sc3ncccc3F)c3c(C#N)cnn3c2)cnn1C[C@H]1CC[C@H](O)CC1 [Example 239] | 3
N#Cc1ccccc1Sc1cc(-c2cnn([C@H]3CC[C@@H](O)CC3)c2)cn2ncc(C#N)c12 [Example 294] | 0.5
Cc1c(-c2cc(Sc3ccc(F)cc3C#N)c3c(C#N)cnn3c2)cnn1C1CCN(C[C@@H](C)O)CC1 [Example 331] | 1
Cc1nn([C@H]2CC[C@@H](N(C)C)CC2)c(C)c1-c1cc(Sc2ncccc2F)c2c(C#N)cnn2c1 [Example 304] | 3.5

Here are 2 compounds. What values of IC50 were reported for them?
1. CC(=O)N1CCC(n2ncc(-c3cc(Sc4ncccc4F)c4c(C#N)cnn4c3)c2C)CC1 [Example 152]
2. Cc1c(-c2cc(Sc3ncccc3F)c3c(C#N)cnn3c2)cnn1C1CC2CCC(C1)N2 (stereo not shown) [Example 203]

Result:
1. 2
2. 2

Q: What reported IC50 corresponds to Cc1c(-c2cc(Sc3ncccc3F)c3c(C#N)cnn3c2)cnn1C1CCN(C(=O)[C@H](C)O)CC1 [Example 194] on FGFR2 (Homo sapiens, UniProt P21802)?
Result: 2

* * *

Target: UniProt:P21802
Test: FGFR wild type enzyme assay (HTRF KinEASE-TK), FGFR2
Details: Enz FGFR2 (nM), FGFR2 wild type enzyme
readout type: IC50 (nM)
Numbers only, in nM.

Below are worked cases with known answers.
compound | IC50 (nM)
CC(=O)N[C@H]1CC[C@@H](n2ncc(-c3cc(Sc4ccccc4C#N)c4c(C#N)cnn4c3)c2C)CC1 [Example 273] | 0.5
CC(=O)N1CCC[C@H](Cn2ncc(-c3cc(Sc4ccccc4C#N)c4c(C#N)cnn4c3)c2C)C1 [Example 202] | 2
Cc1c(-c2cc(Sc3ccc(F)cn3)c3c(C#N)cnn3c2)cnn1[C@H]1CC[C@@H](O)CC1 [Example 290] | 5

Note: attention shifts to another entry.
Q: Given the compound Cc1c(-c2cc(Sc3ncc(F)cc3F)c3c(C#N)cnn3c2)cnn1[C@H]1CCCN(C(=O)CO)C1 [Example 229] , what is its reported IC50?
Result: 3

* * *

Molecular target: FGFR2 (Homo sapiens, UniProt P21802)
Experiment: FGFR wild type enzyme assay (HTRF KinEASE-TK), FGFR2
Conditions: Enz FGFR2 (nM)
Where a name gives a salt, the structure may show the parent alone.
Friendly reminder: IC50 below 6 nM is TRUE, at or above is FALSE.

molecule | tested system | label
Cc1nc(Sc2cc(-c3cnn(C4CCN(C)CC4)c3C)cn3ncc(C#N)c23)ccc1F | FGFR2 (Homo sapiens, UniProt P21802) | TRUE
Cc1c(-c2cc(Sc3ncccc3F)c3c(C#N)cnn3c2)cnn1[C@H]1CCNC1 | FGFR2 (Homo sapiens, UniProt P21802) | TRUE
CC(C)N1CCC(n2cc(-c3cc(Sc4ccccn4)c4c(C#N)cnn4c3)cn2)CC1 | FGFR2 (Homo sapiens, UniProt P21802) | TRUE
CC(C)Sc1cc(-c2cnn([C@H]3CCCNC3)c2)cn2ncc(C#N)c12 | FGFR2 (Homo sapiens, UniProt P21802) | TRUE
Cn1nccc1Sc1cc(-c2cnn(C3CCNCC3)c2)cn2ncc(C#N)c12 [Example 61, HCl] | FGFR2 (Homo sapiens, UniProt P21802) | FALSE

Q: State whether 6 nM exceeds IC50 recorded for CC(C)Sc1cc(-c2cnn([C@H]3CCCN(CCO)C3)c2)cn2ncc(C#N)c12 .
Result: TRUE

* * *

Target: UniProt P21802
Experiment: FGFR wild type enzyme assay (HTRF KinEASE-TK), FGFR2
Conditions: Enz FGFR2 (nM)
Counter-ions that a name gives are not always drawn.
readout type: IC50
A complete answer gives the number and then names the unit.

Below are worked cases with known answers.
compound | result
N#Cc1cnn2cc(-c3cnn([C@H]4CCCNC4)c3)cc(Sc3cnccn3)c12 | 13 nM
N#Cc1cnn2cc(-c3cnn([C@H]4CCCN(CCO)C4)c3)cc(Sc3ccccn3)c12 | 2 nM
N#Cc1cnn2cc(-c3cnn([C@H]4CCCNC4)c3)cc(Sc3cccc(C(F)(F)F)n3)c12 | 68 nM

Here are 8 compounds. What values of IC50 were reported for them?
1. Cc1c(-c2cc(Sc3ncccc3F)c3c(C#N)cnn3c2)cnn1[C@@H]1CCCNC1
2. N#Cc1cnn2cc(-c3cnn([C@H]4CCCNC4)c3)cc(Sc3ncccc3C(F)(F)F)c12
3. CC(C)OC[C@@H](C)Sc1cc(-c2cnn([C@H]3CCCNC3)c2)cn2ncc(C#N)c12
4. Cc1cccnc1Sc1cc(-c2cnn(C3CCNCC3)c2)cn2ncc(C#N)c12 [Example 65, HCl]
5. CCSc1cc(-c2cnn([C@H]3CCCNC3)c2)cn2ncc(C#N)c12
6. N#Cc1cnn2cc(-c3cnn([C@H]4CCCNC4)c3)cc(Sc3cccc(C(F)F)n3)c12
7. N#Cc1cnn2cc(-c3cnn([C@H]4CCCNC4)c3)cc(Sc3cncnc3)c12
8. N#Cc1cnn2cc(-c3cnn([C@H]4CCCNC4)c3)cc(SC3CCOC3)c12 (some centres unmarked)

Result:
1: 6 nM; 2: 4 nM; 3: 2 nM; 4: 4 nM; 5: 1 nM; 6: 22 nM; 7: 19 nM; 8: 4 nM
